# experimental_system: SHP2-C SH2;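 note: peptide library displayed on the E. coli surface as eCPX fusions, selected cells deep-sequenced, score is each peptide's frequency after selection divided by its frequency in the input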
# method_notes: SH2 binding enrichment of the phosphorylated peptide, bacterial display (enrichment ratio); higher = better substrate or ligand; peptides without Tyr show the background
measure: SH2 binding enrichment
Note: the reply should be a number with no unit written.

Returns the measured SH2 binding enrichment for the input sequence. Input: QAEEWYFGKMG [YES1_Y159] 1.09

// below: SH2 binding enrichment requested for another sequence
# get_value(readout='SH2 binding enrichment', item= SPDMLYQYLKQ [RPAP3_Y567] ) 0.659

----------
# experimental_system: Fes (UniProt P07332)
# Sequence (P07332 whole entry, looked up): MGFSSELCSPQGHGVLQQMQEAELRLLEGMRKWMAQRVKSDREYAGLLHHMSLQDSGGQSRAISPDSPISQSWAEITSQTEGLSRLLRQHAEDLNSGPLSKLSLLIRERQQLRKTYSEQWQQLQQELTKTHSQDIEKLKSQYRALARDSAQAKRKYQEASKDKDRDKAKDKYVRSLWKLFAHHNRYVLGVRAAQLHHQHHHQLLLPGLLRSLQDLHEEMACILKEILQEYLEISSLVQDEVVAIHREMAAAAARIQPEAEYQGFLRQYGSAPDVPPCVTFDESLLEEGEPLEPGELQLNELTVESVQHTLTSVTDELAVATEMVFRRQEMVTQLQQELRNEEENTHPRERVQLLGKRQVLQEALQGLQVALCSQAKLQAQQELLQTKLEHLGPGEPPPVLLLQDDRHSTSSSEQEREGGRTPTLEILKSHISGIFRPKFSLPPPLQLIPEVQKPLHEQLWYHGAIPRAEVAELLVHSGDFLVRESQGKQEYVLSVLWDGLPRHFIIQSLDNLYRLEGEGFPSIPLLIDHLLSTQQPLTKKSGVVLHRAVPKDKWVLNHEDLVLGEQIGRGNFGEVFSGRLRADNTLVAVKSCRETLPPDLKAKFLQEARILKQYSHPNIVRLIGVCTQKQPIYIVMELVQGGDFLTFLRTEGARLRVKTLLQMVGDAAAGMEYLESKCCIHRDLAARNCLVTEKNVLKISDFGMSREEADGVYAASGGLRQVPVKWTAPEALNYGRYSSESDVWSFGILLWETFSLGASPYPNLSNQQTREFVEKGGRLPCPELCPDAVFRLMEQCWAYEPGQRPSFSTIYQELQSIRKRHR
# method_notes: phosphorylation enrichment, bacterial display (enrichment ratio); higher = better substrate or ligand; peptides without Tyr show the background
Please enter true (1) where phosphorylation enrichment is greater than or equal to 1, and false (0) where it is lower.

Known results for sequences:
Would you say SHEELYKWFTS [DYNC1H1_Y3051] shows phosphorylation enrichment at minimum 1? true (1)

Try this sequence too: TTICKYITPME [GUCY2C_Y839_S840I] false (0)

Item: TYVKSYTIHYS [F5_Y2153_M2148T] true (1)

Then KMGNIYRTEYG [MRPL3_Y265] ? false (0)

Now let's try a different one.
Kindly determine if phosphorylation enrichment recorded for YGMSSYITRED [FNDC3B_Y180_T179S] is above or exactly 1. false (0)

----------
Recorded measurements of phosphorylation enrichment, one per entry
# System: c-Abl (mouse)
# method_notes: phosphorylation enrichment, bacterial display (enrichment ratio); higher = better substrate or ligand; peptides without Tyr show the background
Response field accepts a number only; no unit should be typed.

Before answering, review these 5 worked examples.
Report phosphorylation enrichment for EQSGSYIWVPA [DLG1_Y895] please. 0.807

Entry GFILMYDITNE [RAB3C_Y110] please 0.8

Now this one: SEKISYVFMKR [SSX7_Y48_L43S_YF] 0.822

And then FKIFLYTLNDN [FN1_Y1975_YF] , what is it? 0.877

Also IYLGAYDRFLP [SLC22A5_Y486_V481I] , if possible. 2.56

Others:
GET /values?readout=phosphorylation enrichment&item= PEVCDYGLGGG [GSTO1_Y239_A236V] 0.726

// query: AVSEGYKDFRA [CDA_Y79] 0.602

----------
# Test system: Fer (mouse)
# method_notes: phosphorylation enrichment, bacterial display (enrichment ratio); higher = better substrate or ligand; peptides without Tyr show the background
Param threshold (0.5) applies to phosphorylation enrichment; output condition met when value >= threshold, condition not met when value < threshold.

In plain terms: is recorded phosphorylation enrichment at least 0.5 for LNCIFYKDQTG [RS1_Y166_W163C_YF] ? condition met

# iterate: SEKISYVFMKR [SSX7_Y48_L43S_YF] condition not met

Also check TSEASYYKSLN [NGEF_Y288] condition not met

// query: DPTNTYARPAE [SGMS2_Y24] condition not met

Query LTEHGYSFTTT [ACTB_Y198_R196H] next condition met

Further cases:
// inclusive: phosphorylation enrichment at least 0.5? input: FSNVLYRPRGP [TMIGD2_Y197_A202P_YF] condition not met

What do we get for GSETPYVDRTP [ESS2_Y335] ? condition not met

Check AEPPDYSPVTQ [ADGRG2_Y285_H290Q] too. condition met

Same question for KKARAYRPGIE [FLNA_Y287_G288R] please. condition not met
